species on record: Bos taurus; assay: Residual NADH:UBQ:DCIP reductase activity in beef mitochondrial particles; parameters: concentration or dose not given beside the values
Threshold-based label: residual activity under 70% gives True, residual activity not under 70% gives False.

## Task Record `Cn1c(Cl)c(/C=C/c2cccs2)[n+]2c1SCC2` : is its residual activity strictly below 70%?
## Result False

## Task Quick check: residual activity of `Cn1c(-c2ccccc2)c(/C=C/c2cccs2)[n+]2c1SCC2` under 70%?
## Result False

## Task I'd appreciate it if you could check whether `Cn1c(Cl)c(/C=C\c2cccs2)[n+]2c1SCC2` has residual activity smaller than 70%.
## Result False

## Task I'd appreciate it if you could check whether `Cc1csc2nc(-c3ccsc3)cn12` has residual activity smaller than 70%.
## Result True
